- condition_context: human gut metagenome, 24 h, 2 µM; also: call rule not given here
measurement_name: Bacterial Biotransformation

Query: Bench note: what Bacterial Biotransformation did NC(CO)(CO)CO.O=C(c1ccccc1)c1ccc2n1CCC2C(=O)O (stereo unspecified) show?
Result: Compound metabolized

Query: Please do the same for `CN1CCc2c(c3ccccc3n2Cc2ccccc2)C1.CN1CCc2c(c3ccccc3n2Cc2ccccc2)C1.O=S(=O)(O)c1cccc2c(S(=O)(=O)O)cccc12` as well.
Result: Compound metabolized

Query: Please do the same for `CCCc1nc(C(C)(C)O)c(C(=O)OCc2oc(=O)oc2C)n1Cc1ccc(-c2ccccc2-c2nnn[nH]2)cc1` as well.
Result: Compound metabolized

Query: Please do the same for CNS(=O)(=O)Cc1ccc2[nH]cc(CCN(C)C)c2c1.O=C(O)CCC(=O)O [SUMATRIPTAN SUCCINATE] as well.
Result: Compound NOT metabolized

Query: Please do the same for `CC(C)c1c(C(=O)Nc2ccccc2)c(-c2ccccc2)c(-c2ccc(F)cc2)n1CC[C@@H](O)C[C@@H](O)CC(=O)O` as well.
Result: Compound metabolized

New cases:
Query: Bench note: what Bacterial Biotransformation did CN(C)C(=O)C(CCN1CCC(O)(c2ccc(Cl)cc2)CC1)(c1ccccc1)c1ccccc1 [LOPERAMIDE] show?
Result: Compound metabolized

Query: Please do the same for `Fc1ccc([C@@H]2CCNC[C@H]2COc2ccc3c(c2)OCO3)cc1` as well.
Result: Compound metabolized

Query: Please do the same for CC(=O)CC(c1ccccc1)c1c(O)c2ccccc2oc1=O (stereo unspecified) as well.
Result: Compound metabolized

----------
- condition_context: human gut metagenome, 24 h, 2 µM
measurement_name: Bacterial Biotransformation

Below are worked cases with known answers.
Query: Bench note: what Bacterial Biotransformation did `Fc1ccc([C@@H]2CCNC[C@H]2COc2ccc3c(c2)OCO3)cc1` show?
Result: Compound metabolized

Query: Please do the same for `O=c1[nH]c2ccccc2n1CCCN1CCC(n2c(=O)[nH]c3cc(Cl)ccc32)CC1` as well.
Result: Compound NOT metabolized

Query: Please do the same for `CN1CC(=O)N2[C@H](c3ccc4c(c3)OCO4)c3[nH]c4ccccc4c3C[C@@H]2C1=O` as well.
Result: Compound metabolized

Query: Please do the same for COc1ccccc1N1CCN(CC(O)COc2cccc3ccccc23)CC1 (configuration not stated) as well.
Result: Compound NOT metabolized

Query: Please do the same for CC(C)(C)NC[C@H](O)COc1ccccc1C1CCCC1.CC(C)(C)NC[C@H](O)COc1ccccc1C1CCCC1.O=S(=O)(O)O [PENBUTOLOL SULFATE] as well.
Result: Compound metabolized

Query: Please do the same for O=C(O)COCCN1CCN(C(c2ccccc2)c2ccc(Cl)cc2)CC1 (configuration not stated) as well.
Result: Compound metabolized

Query: Please do the same for CC(C)OC(=O)C(C)(C)Oc1ccc(C(=O)c2ccc(Cl)cc2)cc1 [FENOFIBRATE] as well.
Result: Compound metabolized

Query: Please do the same for CN(C)CCc1c[nH]c2ccc(Cn3cncn3)cc12.O=C(O)c1ccccc1 [RIZATRIPTAN BENZOATE] as well.
Result: Compound NOT metabolized

Query molecule follows.
Query: Bench note: what Bacterial Biotransformation did COc1ccc2[nH]c([S+]([O-])Cc3ncc(C)c(OC)c3C)nc2c1 (configuration not stated) show?
Result: Compound metabolized

----------
- condition_context: human gut metagenome, 24 h, 2 µM
measurement_name: Bacterial Biotransformation

Below are worked cases with known answers.
Query: Bench note: what Bacterial Biotransformation did COc1ccc(CCN(C)CCCC(C#N)(c2ccc(OC)c(OC)c2)C(C)C)cc1OC (stereo not given) show?
Result: Compound NOT metabolized

Query: Please do the same for `CCOC(=O)[C@H](CCc1ccccc1)N[C@@H](C)C(=O)N1[C@H](C(=O)O)C[C@@H]2CCC[C@@H]21` as well.
Result: Compound metabolized

Query: Please do the same for `Nc1nc2ccc(OC(F)(F)F)cc2s1` as well.
Result: Compound metabolized

Query: Please do the same for `C#C[C@]1(O)CC[C@H]2[C@@H]3CCC4=Cc5oncc5C[C@]4(C)[C@H]3CC[C@@]21C` as well.
Result: Compound metabolized

New cases:
Query: Bench note: what Bacterial Biotransformation did `C#C[C@]1(O)CC[C@H]2[C@@H]3CCC4=CC(=O)CC[C@@H]4[C@H]3CC[C@@]21CC` show?
Result: Compound NOT metabolized

Query: Please do the same for CS(=O)(=O)O.OC(CCN1CCCCC1)(c1ccccc1)c1ccccc1 [PRIDINOL METHANESULFONATE] as well.
Result: Compound metabolized

Query: Please do the same for CN1C(=O)CC(C)(c2ccccc2)C1=O (stereo not given) [METHSUXIMIDE] as well.
Result: Compound NOT metabolized

Query: Please do the same for `Fc1ccc([C@@H]2CCNC[C@H]2COc2ccc3c(c2)OCO3)cc1` as well.
Result: Compound metabolized

Query: Please do the same for CN1CCOC(c2ccccc2)c2ccccc2C1 (stereo not given) as well.
Result: Compound metabolized

Query: Please do the same for CC(C)NCC(O)COc1ccc(COCCOC(C)C)cc1.CC(C)NCC(O)COc1ccc(COCCOC(C)C)cc1.O=C(O)/C=C/C(=O)O (stereo not given) [BISOPROLOL FUMARATE] as well.
Result: Compound metabolized

Query: Please do the same for O=c1[nH]c2ccccc2n1C1CCN(CCCC(c2ccc(F)cc2)c2ccc(F)cc2)CC1 [PIMOZIDE] as well.
Result: Compound metabolized

Query: Please do the same for `CCCCC(=O)N(Cc1ccc(-c2ccccc2-c2nnn[nH]2)cc1)[C@H](C(=O)O)C(C)C` as well.
Result: Compound metabolized

Query: Please do the same for COC(=O)C1=C(C)NC(C)=C(C(=O)OC(C)C)C1c1cccc2nonc12 (stereo not given) as well.
Result: Compound metabolized

Query: Please do the same for CC(C)OC(=O)C(C)(C)Oc1ccc(C(=O)c2ccc(Cl)cc2)cc1 [FENOFIBRATE] as well.
Result: Compound NOT metabolized

----------
- condition_context: human gut metagenome, 24 h, 2 µM
measurement_name: Bacterial Biotransformation

Query: Bench note: what Bacterial Biotransformation did CC(=O)CC(c1ccccc1)c1c(O)c2ccccc2oc1=O (stereo unspecified) [WARFARIN] show?
Result: Compound metabolized

Query: Please do the same for CC(C)(C)NC[C@H](O)COc1ccccc1C1CCCC1.CC(C)(C)NC[C@H](O)COc1ccccc1C1CCCC1.O=S(=O)(O)O [PENBUTOLOL SULFATE] as well.
Result: Compound metabolized

Query: Please do the same for COC(=O)[C@H]1[C@H]2C[C@@H]3c4[nH]c5cc(OC)ccc5c4CCN3C[C@H]2C[C@@H](OC(=O)c2cc(OC)c(OC)c(OC)c2)[C@@H]1OC [RESERPINE] as well.
Result: Compound metabolized

Query: Please do the same for CC(C)c1nc(CN(C)C(=O)N[C@H](C(=O)N[C@@H](Cc2ccccc2)C[C@H](O)[C@H](Cc2ccccc2)NC(=O)OCc2cncs2)C(C)C)cs1 [RITONAVIR] as well.
Result: Compound metabolized

Query: Please do the same for Fc1ccc([C@@H]2CCNC[C@H]2COc2ccc3c(c2)OCO3)cc1 [PAROXETINE] as well.
Result: Compound metabolized

New cases:
Query: Bench note: what Bacterial Biotransformation did CC[C@@H](CO)NC(=O)[C@@H]1C=C2c3cccc4c3c(cn4C)C[C@H]2N(C)C1.O=C(O)/C=C\C(=O)O [METHYSERGIDE MALEATE] show?
Result: Compound NOT metabolized

Query: Please do the same for OC(CCN1CCCCC1)(c1ccccc1)C1CCCCC1 (stereo unspecified) [TRIHEXYPHENIDYL] as well.
Result: Compound NOT metabolized

----------
- protocol: The drug is tested on WLS-350 corresponding to human gut metagenome with ENA study accession number: PRJEB37062 and ENA sample accession number: ERS12561789 for biotransformation under anaerobic condition. The drug concentrations were measured over 9 timepoints collected between 0 and 24 hours of incubation by liquid-chromatography-coupled mass spectrometry (LC–MS)
- condition_context: 2 µM
measurement_name: Bacterial Biotransformation

Below are worked cases with known answers.
Query: Bench note: what Bacterial Biotransformation did CCCc1nn(C)c2c(=O)[nH]c(-c3cc(S(=O)(=O)N4CCN(C)CC4)ccc3OCC)nc12.O=C(O)CC(O)(CC(=O)O)C(=O)O [SILDENAFIL CITRATE] show?
Result: Compound NOT metabolized

Query: Please do the same for CN(C)CC(c1ccc(O)cc1)C1(O)CCCCC1.O=C(O)CCC(=O)O (stereo not drawn) [DESVENLAFAXINE SUCCINATE] as well.
Result: Compound NOT metabolized

Query: Please do the same for O=C(NCc1ccccc1)OCCO [BURAMATE] as well.
Result: Compound NOT metabolized

Query: Please do the same for CS(=O)(=O)O.O.O.O.O=C1Cc2cc(CCN3CCN(c4nsc5ccccc45)CC3)c(Cl)cc2N1 [ZIPRASIDONE MESYLATE] as well.
Result: Compound metabolized

Query: Please do the same for COc1ccccc1OCC(O)COC(N)=O (stereo not drawn) as well.
Result: Compound NOT metabolized

Query: Please do the same for CC(=O)OCC(=O)[C@@]1(O)[C@@H](C)C[C@H]2[C@@H]3CCC4=CC(=O)C=C[C@]4(C)[C@@]3(F)[C@@H](O)C[C@@]21C [BETAMETHASONE ACETATE] as well.
Result: Compound metabolized

New cases:
Query: Bench note: what Bacterial Biotransformation did OC(CCN1CCCCC1)(c1ccccc1)C1CCCCC1 (stereo not drawn) show?
Result: Compound NOT metabolized

Query: Please do the same for `OC(Cn1cncn1)(Cn1cncn1)c1ccc(F)cc1F` as well.
Result: Compound metabolized

Query: Please do the same for CC(C)(C)NC[C@H](O)COc1ccccc1C1CCCC1.CC(C)(C)NC[C@H](O)COc1ccccc1C1CCCC1.O=S(=O)(O)O [PENBUTOLOL SULFATE] as well.
Result: Compound metabolized

Query: Please do the same for `CCCCc1nc(Cl)c(CO)n1Cc1ccc(-c2ccccc2-c2nn[nH]n2)cc1` as well.
Result: Compound metabolized

Query: Please do the same for Cc1nc2n(c(=O)c1CCN1CCC(c3noc4cc(F)ccc34)CC1)CCCC2O (stereo not drawn) as well.
Result: Compound metabolized

Query: Please do the same for `CO[C@]12C[C@@H](COC(=O)c3cncc(Br)c3)CN(C)[C@@H]1Cc1cn(C)c3cccc2c13` as well.
Result: Compound NOT metabolized

Query: Please do the same for CCN(CC)CCNC(=O)c1cc(Cl)c(N)cc1OC [METOCLOPRAMIDE] as well.
Result: Compound NOT metabolized

Query: Please do the same for `COc1c2occc2cc2ccc(=O)oc12` as well.
Result: Compound metabolized

Query: Please do the same for `CCCCCOC(=O)Nc1nc(=O)n([C@@H]2O[C@H](C)[C@@H](O)[C@H]2O)cc1F` as well.
Result: Compound metabolized

Query: Please do the same for `Cc1ccc(-c2nc3ccc(C)cn3c2CC(=O)N(C)C)cc1` as well.
Result: Compound NOT metabolized

Query: Please do the same for CCC1(c2ccc(N)cc2)CCC(=O)NC1=O (stereo not drawn) [AMINOGLUTETHIMIDE] as well.
Result: Compound NOT metabolized

Query: Please do the same for `COC(=O)Nc1nc2ccc(C(=O)c3ccccc3)cc2[nH]1` as well.
Result: Compound NOT metabolized
